Experiment: In vitro stability in mouse plasma/PBS (1:2 v/v) at 37 °C
Type: in vitro ADME
Conditions: pH 7.4, 10 min, read-out: % intact peptide in mouse plasma after the given incubation time
Metric: remaining at 10 min, 100 µM

Entry under review: CN[C@@H](CCCNC(=N)NC(=O)NCCCCNC(=O)CCc1cn([C@@H]2O[C@H](CF)[C@@H](O)[C@H](O)[C@H]2O)nn1)C(=O)N[C@@H](CCCNC(=N)N)C(=O)N1CCC[C@H]1C(=O)N[C@@H](Cc1ccc(O)cc1)C(=O)N[C@H](C(=O)N[C@@H](CC(C)C)C(=O)O)C(C)(C)C . Reported remaining at 10 min, 100 µM? > 99%

----------
Molecular target: hNTS1R (Homo sapiens)
Construct: at hNTS1R expressing intact human HT-29 colon carcinoma cells; endogenous in cells; host or cells: HT-29 human colon carcinoma cells (intact)
Sequence (P30989 whole entry): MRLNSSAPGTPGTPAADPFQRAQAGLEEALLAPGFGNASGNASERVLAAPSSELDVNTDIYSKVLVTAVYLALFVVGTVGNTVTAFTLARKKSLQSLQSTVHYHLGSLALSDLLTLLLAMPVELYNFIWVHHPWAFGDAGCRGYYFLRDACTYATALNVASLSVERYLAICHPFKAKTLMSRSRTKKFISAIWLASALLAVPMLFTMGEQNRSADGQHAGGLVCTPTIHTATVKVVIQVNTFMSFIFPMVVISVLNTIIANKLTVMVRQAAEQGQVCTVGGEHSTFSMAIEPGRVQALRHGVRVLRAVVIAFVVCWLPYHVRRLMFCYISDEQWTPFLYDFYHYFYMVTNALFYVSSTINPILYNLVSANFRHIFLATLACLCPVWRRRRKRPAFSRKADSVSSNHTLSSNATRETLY
Experiment: Radioligand competition binding with [^3H]UR-MK300 at intact HT-29 cells
Conditions: [^3H]UR-MK300 (Kd = […], c = 1 nM), 23 °C, read-out: pKi ± SEM (converted)
Please respond with reported Ki for every item in the list.
Expressed in nM, but write only the number.

Can you look up the measured Ki of CC(C)C[C@H](NC(=O)[C@@H](NC(=O)[C@H](Cc1ccc(O)cc1)NC(=O)[C@@H]1CCCN1C(=O)[C@H](CCCNC(=N)NC(=O)NCCCCc1cn([C@@H]2O[C@H](CF)[C@@H](O)[C@H](O)[C@H]2O)nn1)NC(=O)[C@@H](N)CCCNC(=N)N)C(C)(C)C)C(=O)O for me? 5.5

Field entry: C#CCCC(=O)NCCCCNC(=O)NC(=N)NCCC[C@H](N)C(=O)N[C@@H](CCCNC(=N)N)C(=O)N1CCC[C@H]1C(=O)N[C@@H](Cc1ccc(O)cc1)C(=O)N[C@H](C(=O)N[C@@H](CC(C)C)C(=O)O)C(C)(C)C 4.27

Ok, now C#CCCCCNC(=O)NC(=N)NCCC[C@H](N)C(=O)N[C@@H](CCCNC(=N)N)C(=O)N1CCC[C@H]1C(=O)N[C@@H](Cc1ccc(O)cc1)C(=O)N[C@H](C(=O)N[C@@H](CC(C)C)C(=O)O)C(C)(C)C 4.37

Consider next the compound C#CCCCCNC(=O)NC(=N)NCCC[C@H](NC(=O)[C@H](CCCNC(=N)N)NC)C(=O)N1CCC[C@H]1C(=O)N[C@@H](Cc1ccc(O)cc1)C(=O)N[C@H](C(=O)N[C@@H](CC(C)C)C(=O)O)C(C)(C)C in the same way. 7.41

Entry to check: CN[C@@H](CCCNC(=N)NC(=O)NCCCCNC(=O)CCc1cn([C@@H]2O[C@H](CF)[C@@H](O)[C@H](O)[C@H]2O)nn1)C(=O)N[C@@H](CCCNC(=N)N)C(=O)N1CCC[C@H]1C(=O)N[C@@H](Cc1ccc(O)cc1)C(=O)N[C@H](C(=O)N[C@@H](CC(C)C)C(=O)O)C(C)(C)C 4.07

Moving on to the next compound: CC(C)C[C@H](NC(=O)[C@@H](NC(=O)[C@H](Cc1ccc(O)cc1)NC(=O)[C@@H]1CCCN1C(=O)[C@H](CCCNC(=N)N)NC(=O)[C@@H](N)CCCNC(=N)NC(=O)NCCCCN)C(C)(C)C)C(=O)O 2.04

----------
Assay: In vitro stability in mouse plasma/PBS (1:2 v/v) at 37 °C
Assay type: in vitro ADME
Conditions: pH 7.4, 2 h, read-out: % intact peptide in mouse plasma after the given incubation time
Metric: remaining at 2 h, 100 µM

Quick one: remaining at 2 h, 100 µM of CN[C@@H](CCCNC(=N)NC(=O)NCCCCNC(=O)CCc1cn([C@@H]2O[C@H](CF)[C@@H](O)[C@H](O)[C@H]2O)nn1)C(=O)N[C@@H](CCCNC(=N)N)C(=O)N1CCC[C@H]1C(=O)N[C@@H](Cc1ccc(O)cc1)C(=O)N[C@H](C(=O)N[C@@H](CC(C)C)C(=O)O)C(C)(C)C ? > 99%

----------
Test: In vitro stability in human plasma/PBS (1:2 v/v) at 37 °C
Assay type: in vitro ADME
Conditions: human blood plasma/PBS (1:2 v/v), pH 7.4, 10 min, read-out: % intact peptide in human plasma after the given incubation time
Metric: remaining at 10 min, 100 µM

Consider the compound shown here: CC(C)C[C@H](NC(=O)[C@@H](NC(=O)[C@H](Cc1ccc(O)cc1)NC(=O)[C@@H]1CCCN1C(=O)[C@H](CCCNC(=N)NC(=O)NCCCCc1cn([C@@H]2O[C@H](CF)[C@@H](O)[C@H](O)[C@H]2O)nn1)NC(=O)[C@@H](N)CCCNC(=N)N)C(C)(C)C)C(=O)O What is its recorded remaining at 10 min, 100 µM? 86%

And the next one, C#CCCC(=O)NCCCCNC(=O)NC(=N)NCCC[C@H](N)C(=O)N[C@@H](CCCNC(=N)N)C(=O)N1CCC[C@H]1C(=O)N[C@@H](Cc1ccc(O)cc1)C(=O)N[C@H](C(=O)N[C@@H](CC(C)C)C(=O)O)C(C)(C)C ? 59%

----------
Experiment: In vitro stability in mouse plasma/PBS (1:2 v/v) at 37 °C
Format: in vitro ADME
Conditions: pH 7.4, 24 h, read-out: % intact peptide in mouse plasma after the given incubation time
Metric: remaining at 24 h, 100 µM

So what does the record say about remaining at 24 h, 100 µM for CN[C@@H](CCCNC(=N)NC(=O)NCCCCNC(=O)CCc1cn([C@@H]2O[C@H](CF)[C@@H](O)[C@H](O)[C@H]2O)nn1)C(=O)N[C@@H](CCCNC(=N)N)C(=O)N1CCC[C@H]1C(=O)N[C@@H](Cc1ccc(O)cc1)C(=O)N[C@H](C(=O)N[C@@H](CC(C)C)C(=O)O)C(C)(C)C ? > 99%

----------
What remaining at 1 h, 100 µM was measured for each of the following?
Assay: In vitro stability in human plasma/PBS (1:2 v/v) at 37 °C
Type: in vitro ADME
Settings: human blood plasma/PBS (1:2 v/v), pH 7.4, 1 h, read-out: % intact peptide in human plasma after the given incubation time

Requested field: remaining at 1 h, 100 µM. Item: C#CCCC(=O)NCCCCNC(=O)NC(=N)NCCC[C@H](N)C(=O)N[C@@H](CCCNC(=N)N)C(=O)N1CCC[C@H]1C(=O)N[C@@H](Cc1ccc(O)cc1)C(=O)N[C@H](C(=O)N[C@@H](CC(C)C)C(=O)O)C(C)(C)C < 1%

Would you mind doing CN[C@@H](CCCNC(=N)NC(=O)NCCCCN)C(=O)N[C@@H](CCCNC(=N)N)C(=O)N1CCC[C@H]1C(=O)N[C@@H](Cc1ccc(O)cc1)C(=O)N[C@H](C(=O)N[C@@H](CC(C)C)C(=O)O)C(C)(C)C as well? > 99%

Could you do the same for CC(C)C[C@H](NC(=O)[C@@H](NC(=O)[C@H](Cc1ccc(O)cc1)NC(=O)[C@@H]1CCCN1C(=O)[C@H](CCCNC(=N)N)NC(=O)[C@@H](N)CCCNC(=N)NC(=O)NCCCCN)C(C)(C)C)C(=O)O , please? < 1%

Could you do the same for CC(C)C[C@H](NC(=O)[C@@H](NC(=O)[C@H](Cc1ccc(O)cc1)NC(=O)[C@@H]1CCCN1C(=O)[C@H](CCCNC(=N)N)NC(=O)[C@@H](N)CCCNC(=N)NC(=O)NCCCCNC(=O)CCc1cn([C@@H]2O[C@H](CF)[C@@H](O)[C@H](O)[C@H]2O)nn1)C(C)(C)C)C(=O)O , please? 6.4%

For C#CCCC(=O)NCCCCNC(=O)NC(=N)NCCC[C@H](NC)C(=O)N[C@@H](CCCNC(=N)N)C(=O)N1CCC[C@H]1C(=O)N[C@@H](Cc1ccc(O)cc1)C(=O)N[C@H](C(=O)N[C@@H](CC(C)C)C(=O)O)C(C)(C)C then? > 99%

Could you do the same for CC(C)C[C@H](NC(=O)[C@@H](NC(=O)[C@H](Cc1ccc(O)cc1)NC(=O)[C@@H]1CCCN1C(=O)[C@H](CCCNC(=N)NC(=O)NCCCCc1cn([C@@H]2O[C@H](CF)[C@@H](O)[C@H](O)[C@H]2O)nn1)NC(=O)[C@@H](N)CCCNC(=N)N)C(C)(C)C)C(=O)O , please? < 1%

----------
Test: In vitro stability in human plasma/PBS (1:2 v/v) at 37 °C
Assay type: in vitro ADME
Settings: human blood plasma/PBS (1:2 v/v), pH 7.4, 10 min, read-out: % intact peptide in human plasma after the given incubation time
Metric: remaining at 10 min, 100 µM (%)
Give the quantity in %, number only.

For the compound CC(C)C[C@H](NC(=O)[C@@H](NC(=O)[C@H](Cc1ccc(O)cc1)NC(=O)[C@@H]1CCCN1C(=O)[C@H](CCCNC(=N)N)NC(=O)[C@@H](N)CCCNC(=N)NC(=O)NCCCCN)C(C)(C)C)C(=O)O , what remaining at 10 min, 100 µM is on record? 50

Then this compound: CC(C)C[C@H](NC(=O)[C@@H](NC(=O)[C@H](Cc1ccc(O)cc1)NC(=O)[C@@H]1CCCN1C(=O)[C@H](CCCNC(=N)N)NC(=O)[C@@H](N)CCCNC(=N)NC(=O)NCCCCNC(=O)CCc1cn([C@@H]2O[C@H](CF)[C@@H](O)[C@H](O)[C@H]2O)nn1)C(C)(C)C)C(=O)O 78

Next: CC(C)C[C@H](NC(=O)[C@@H](NC(=O)[C@H](Cc1ccc(O)cc1)NC(=O)[C@@H]1CCCN1C(=O)[C@H](CCCNC(=N)N)NC(=O)[C@@H](N)CCCNC(=N)NC(=O)NCCCCc1cn([C@@H]2O[C@H](CF)[C@@H](O)[C@H](O)[C@H]2O)nn1)C(C)(C)C)C(=O)O 72
